Assay: Microsomal metabolic stability, human
Assay type: in vitro ADME
Conditions: pooled liver microsomes, pH 7.4, read-out: Metab. stab, human t1/2
assay_endpoint: half-life at 1 μM

Sample answers from the record:
## Input Requested read-out: half-life at 1 μM. Entry: Cc1ccccc1CCNS(=O)(=O)c1c(Cl)cc(Br)cc1Cl
## Output 3 to 4 min

## Input Using the record for Cc1cc(C)c(S(=O)(=O)NCCc2ccccc2O)c(C)c1 , report its half-life at 1 μM.
## Output 6 to 10 min

## Input Report half-life at 1 μM for Cc1ccccc1C(F)CNS(=O)(=O)c1c(Cl)cc(Br)cc1Cl (racemic) please.
## Output 11 to 13 min

Next:
## Input // query half-life at 1 μM value for entry O=S(=O)(NCCc1ccccc1O)c1c(Cl)cc(Br)cc1Cl
## Output 9 to 11 min
